target of assay: Sodium-dependent serotonin transporter (Homo sapiens, UniProt P31645)
test parameters: HEK293, at 1 µM
Sequence (P31645 whole entry, looked up): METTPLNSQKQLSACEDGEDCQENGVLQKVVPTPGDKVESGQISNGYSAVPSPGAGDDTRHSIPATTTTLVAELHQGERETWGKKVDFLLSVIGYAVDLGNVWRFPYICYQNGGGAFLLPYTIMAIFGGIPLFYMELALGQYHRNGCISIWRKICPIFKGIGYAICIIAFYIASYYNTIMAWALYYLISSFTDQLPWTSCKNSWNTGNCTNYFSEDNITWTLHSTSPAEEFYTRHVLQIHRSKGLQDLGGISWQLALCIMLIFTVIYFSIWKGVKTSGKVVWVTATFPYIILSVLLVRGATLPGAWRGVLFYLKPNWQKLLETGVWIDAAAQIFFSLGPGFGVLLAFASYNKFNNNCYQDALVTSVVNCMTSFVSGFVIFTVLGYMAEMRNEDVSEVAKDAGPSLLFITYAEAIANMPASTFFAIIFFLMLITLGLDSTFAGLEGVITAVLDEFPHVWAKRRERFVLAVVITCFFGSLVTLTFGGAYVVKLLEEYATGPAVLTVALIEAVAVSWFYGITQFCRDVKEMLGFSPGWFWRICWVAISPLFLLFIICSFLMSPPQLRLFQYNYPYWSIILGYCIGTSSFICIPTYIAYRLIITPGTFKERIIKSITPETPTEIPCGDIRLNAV
Description: Inhibition of [3H]-serotonin reuptake at human SERT expressed in HEK293 cells at 1 uM after 15 to 20 mins by fluorescence neurotransmitter transporter assay
The label depends only on inhibition: class 1 if it is at least 20%, class 0 if it is smaller.

Consider the following illustrative entries.
Entry COc1ccc(/C=C(/Cc2ccc(OC)cc2)[N+](=O)[O-])cc1 : is its inhibition no less than 20%?
class 1

Entry CSc1ccc(CC(N)Cc2ccc(SC)cc2)cc1 : is its inhibition no less than 20%?
class 1

Entry CSc1ccc(/C=C(/Cc2ccc(SC)cc2)[N+](=O)[O-])cc1 : is its inhibition no less than 20%?
class 1

Entry CSc1ccc(CC(Cc2ccc(SC)cc2)NC(C)=O)cc1 : is its inhibition no less than 20%?
class 0

Entry O=CNC(Cc1ccc2c(c1)OCO2)Cc1ccc2c(c1)OCO2 : is its inhibition no less than 20%?
class 0

Continue with the next compound.
Entry NC(Cc1ccc2c(c1)OCO2)Cc1ccc2c(c1)OCO2 : is its inhibition no less than 20%?
class 1

* * *

Overview of recorded log10 EC50 for various compounds
Tested on: SH-SY5Y
experiment notes: Antiproliferative activity against human SH-SY5Y cells after 24 hrs Alamar blue assay
Type: functional, cell-based
Recall that a logarithmic scale is used here: each number is log10 of EC50 in µM.

Take a look at these entries with their results.
Given item O=[N+]([O-])/C(=C\c1ccc(Cl)cc1)Cc1ccc(Cl)cc1 , the value recorded as its log10 EC50 is 0.40

Given item CSc1ccc(C/C(=C/c2ccc(Cl)cc2)[N+](=O)[O-])cc1 , the value recorded as its log10 EC50 is 1.30

Given item O=[N+]([O-])/C(=C\c1ccc2c(c1)OCO2)Cc1ccc2c(c1)OCO2 , the value recorded as its log10 EC50 is 1.50

Given item COc1ccc(/C=C(/Cc2ccc(OC)cc2)[N+](=O)[O-])cc1 , the value recorded as its log10 EC50 is 1.10

We next turn to a different compound, shown below.
Given item COc1ccc(CC(Cc2ccc(OC)cc2)NC=O)cc1 , the value recorded as its log10 EC50 is 2.50

* * *

Overview of recorded inhibition for various molecules
target of assay: Sodium-dependent serotonin transporter (Homo sapiens, UniProt P31645)
test parameters: HEK293, at 1 µM
API: value field is a number in %; no unit string.

Take a look at these entries with their results.
Given item CSc1ccc(CC(Cc2ccc(SC)cc2)NC=O)cc1 , the value recorded as its inhibition is 5

Given item COc1ccc(CC(N)Cc2ccc(OC)cc2)cc1 , the value recorded as its inhibition is 11

Given item CCNC(Cc1ccc(SC)cc1)Cc1ccc(SC)cc1 , the value recorded as its inhibition is 31

Given item O=[N+]([O-])/C(=C\c1ccc(Cl)cc1)Cc1ccc(Cl)cc1 , the value recorded as its inhibition is 0

Given item COc1ccc(CC(Cc2ccc(OC)cc2)NC=O)cc1 , the value recorded as its inhibition is 8

We next turn to a different molecule, shown below.
Given item O=[N+]([O-])/C(=C\c1ccc2c(c1)OCO2)Cc1ccc2c(c1)OCO2 , the value recorded as its inhibition is 15

* * *

Tested on: DG-75
experiment notes: Induction of apoptosis in human chemoresistant DG75 cells assessed as formation of apoptotic bodies by propidium iodide FACS analysis
Assay type: functional, cell-based
result type: EC50 (µM)
API: value field is a number in µM; no unit string.

Given item CSc1ccc(CC(Cc2ccc(SC)cc2)NC=O)cc1 , the value recorded as its EC50 is 10

* * *

Overview of recorded Activity for various compounds
experiment notes: Induction of apoptosis in human chemosensitive MUTU-I cells assessed as accumulation at pre-G1 phase at 10 uM by propidium iodide FACS analysis
Format: functional
API: value field is a number in %; no unit string.

Take a look at these entries with their results.
Given item O=[N+]([O-])/C(=C\c1ccc2c(c1)OCO2)Cc1ccc2c(c1)OCO2 , the value recorded as its Activity is 30

Given item CSc1ccc(/C=C(/Cc2ccc(SC)cc2)[N+](=O)[O-])cc1 , the value recorded as its Activity is 50

Given item COc1ccc(/C=C(/Cc2ccc(OC)cc2)[N+](=O)[O-])cc1 , the value recorded as its Activity is 32

We next turn to a different compound, shown below.
Given item O=[N+]([O-])/C(=C\c1ccc(Cl)cc1)Cc1ccc(Cl)cc1 , the value recorded as its Activity is 41

* * *

Tested on: HEK293
experiment notes: Cytotoxicity against human HEK293 cells assessed as decrease in cell viability after 48 hrs neutral red dye assay
Type: functional, cell-based
test parameters: HEK293, 48 h
result type: EC50 (µM)
API: value field is a number in µM; no unit string.

Given item NC(Cc1ccc2c(c1)OCO2)Cc1ccc2c(c1)OCO2 , the value recorded as its EC50 is 25.1

We next turn to a different compound, shown below.
Given item CNC(C)Cc1ccc2c(c1)OCO2 (stereo not drawn) [MIDOMAFETAMINE] , the value recorded as its EC50 is 251

* * *

target of assay: Sodium-dependent serotonin transporter (Homo sapiens)
experiment notes: Inhibition of [3H]-serotonin reuptake at human SERT expressed in HEK293 cells after 15 to 20 mins by fluorescence neurotransmitter transporter assay
Sequence (P31645 whole entry): as the sequence (P31645 whole entry, looked up) above
Overview of recorded pIC50 for various molecules
Kindly note that pIC50 refers to -log10 of the concentration in mol/L and answer with the value alone.

Take a look at these entries with their results.
Given item CC(N)Cc1ccc2c(c1)OCO2 (configuration not stated) , the value recorded as its pIC50 is 6.05

Given item CCNC(Cc1ccc(SC)cc1)Cc1ccc(SC)cc1 , the value recorded as its pIC50 is 5.66

Given item CSc1ccc(CC(Cc2ccc(SC)cc2)NC=O)cc1 , the value recorded as its pIC50 is 4.80

Others:
Given item NC(Cc1ccc2c(c1)OCO2)Cc1ccc2c(c1)OCO2 , the value recorded as its pIC50 is 5.80

Given item CNC(C)Cc1ccc2c(c1)OCO2 (configuration not stated) , the value recorded as its pIC50 is 5.96

Given item CSc1ccc(CC(C)N)cc1 (configuration not stated) , the value recorded as its pIC50 is 6.70

Given item CSc1ccc(CC(N)Cc2ccc(SC)cc2)cc1 , the value recorded as its pIC50 is 5.60

* * *

Tested on: HEK293
experiment notes: Cytotoxicity against human HEK293 cells assessed as decrease in cell viability after 48 hrs neutral red dye assay
Format: functional, cell-based
test parameters: HEK293, 48 h
result type: log10 EC50 (log10 of the value in µM)
Recall that a logarithmic scale is used here: each number is log10 of EC50 in µM.

Take a look at these entries with their results.
Given item CN(C)CCCC1(c2ccc(F)cc2)OCc2cc(C#N)ccc21 (stereo unspecified) , the value recorded as its log10 EC50 is 1.20

Given item O=[N+]([O-])/C(=C\c1ccc2c(c1)OCO2)Cc1ccc2c(c1)OCO2 , the value recorded as its log10 EC50 is 0.90

Given item COc1ccc(CC(Cc2ccc(OC)cc2)NC=O)cc1 , the value recorded as its log10 EC50 is 1.50

Given item CC(=O)NC(Cc1ccc2c(c1)OCO2)Cc1ccc2c(c1)OCO2 , the value recorded as its log10 EC50 is 3.60

Given item CC(N)Cc1ccc2c(c1)OCO2 (stereo unspecified) , the value recorded as its log10 EC50 is 2.50

Given item CSc1ccc(CC(C)N)cc1 (stereo unspecified) , the value recorded as its log10 EC50 is 1.30

Given item CSc1ccc(CC(N)Cc2ccc(SC)cc2)cc1 , the value recorded as its log10 EC50 is 1.30

Given item O=C(Cc1ccc2c(c1)OCO2)Cc1ccc2c(c1)OCO2 , the value recorded as its log10 EC50 is 3.10

Others:
Given item CCNC(Cc1ccc(SC)cc1)Cc1ccc(SC)cc1 , the value recorded as its log10 EC50 is 3.10

Given item COc1ccc(CC(N)Cc2ccc(OC)cc2)cc1 , the value recorded as its log10 EC50 is 1.50

* * *

Overview of recorded EC50 for various compounds
System: SH-SY5Y
experiment notes: Cytotoxicity against human SH-SY5Y cells expressing human SERT assessed as decrease in cell viability after 48 hrs neutral red dye assay
Format: functional, cell-based

Take a look at these entries with their results.
Considering CC(=O)NC(Cc1ccc2c(c1)OCO2)Cc1ccc2c(c1)OCO2 , its EC50 with SH-SY5Y was recorded as > 10000 µM

Considering COc1ccc(CC(N)Cc2ccc(OC)cc2)cc1 , its EC50 with SH-SY5Y was recorded as 20 µM

Considering O=[N+]([O-])/C(=C\c1ccc2c(c1)OCO2)Cc1ccc2c(c1)OCO2 , its EC50 with SH-SY5Y was recorded as 15.8 µM

Others:
Considering CSc1ccc(CC(Cc2ccc(SC)cc2)NC(C)=O)cc1 , its EC50 with SH-SY5Y was recorded as 3980 µM

Considering CSc1ccc(CC(N)Cc2ccc(SC)cc2)cc1 , its EC50 with SH-SY5Y was recorded as 20 µM

Considering CSc1ccc(CC(C)N)cc1 (configuration not stated) , its EC50 with SH-SY5Y was recorded as 631 µM

Considering COc1ccc(CC(Cc2ccc(OC)cc2)NC=O)cc1 , its EC50 with SH-SY5Y was recorded as > 10000 µM

Considering O=C(Cc1ccc2c(c1)OCO2)Cc1ccc2c(c1)OCO2 , its EC50 with SH-SY5Y was recorded as > 10000 µM

Considering CNC(C)Cc1ccc2c(c1)OCO2 (configuration not stated) , its EC50 with SH-SY5Y was recorded as > 10000 µM

Considering CN(C)CCCC1(c2ccc(F)cc2)OCc2cc(C#N)ccc21 (configuration not stated) , its EC50 with SH-SY5Y was recorded as 25.1 µM

Considering CC(N)Cc1ccc2c(c1)OCO2 (configuration not stated) , its EC50 with SH-SY5Y was recorded as > 10000 µM

Considering O=CNC(Cc1ccc2c(c1)OCO2)Cc1ccc2c(c1)OCO2 , its EC50 with SH-SY5Y was recorded as > 10000 µM
